- System: Hek293T
- ASSAY_NAME: Primary qHTS to identify gynecologic anti-cancer compounds using libraries of approved drugs and bioactive compounds (AID 1345084); also: nearly all actives have a fitted effect of over 55% in size
- EXPERIMENTAL_PARAMETERS: Gynecologic cancer cell panel viability, ATPlite luminescence, 48 h, control line for the selectivity index; series mostly up to 57.5 µM
Results filed as inconclusive are left out. The source made the active and inactive calls. Calls follow the shape of the dose curve; as a rule, active = well fitted cell-killing curve with a large enough effect; inconclusive = small, poorly fitted or top-dose-only effect, or effect the other way; inactive = flat fitted curve, though single readings scatter.
Labels: active, inactive

COMPOUND: CCNC1(C(N)=O)CN(c2nc(C)nc3c(-c4ccc(Cl)cc4)c(-c4ccccc4Cl)nn23)C1
CATEGORY_LABEL: inactive
//
COMPOUND: CC12CCC3C1C(c1c(cc(O)c(C(=O)c4ccccc4)c1O)O2)C3(C)C (stereo not drawn)
CATEGORY_LABEL: inactive
//
COMPOUND: COc1cc2ncc(-c3ccccc3)nc2cc1OC
CATEGORY_LABEL: inactive
//
COMPOUND: CN1CCC(c2cn(C)c3ccc(OS(=O)(=O)c4c(F)cccc4F)cc23)CC1
CATEGORY_LABEL: inactive
//
COMPOUND: CC(=O)OC(C)(C)/C=C/C(=O)[C@](C)(O)[C@H]1C(O)C[C@@]2(C)[C@@H]3CC=C4[C@@H](C=C(O[C@@H]5O[C@H](CO)[C@@H](O)[C@H](O)[C@H]5O)C(=O)C4(C)C)[C@]3(C)C(=O)C[C@]12C (stereo partly drawn)
CATEGORY_LABEL: inactive
//
COMPOUND: CC/C(C)=C/C(=O)OC1C(OC2(C)CCC3C(C4C(C)CCC42)C3(C)C)OC(C)C(O)C1O (stereo not drawn)
CATEGORY_LABEL: inactive
//
COMPOUND: CC(C)C[C@@H](C(=O)N[C@@H](Cc1ccc(OCc2ccccc2)cc1)C(=O)NC(C)(C)C)N(C)Cc1ccc(C(C)(C)C)cc1
CATEGORY_LABEL: inactive
//
COMPOUND: CC(=O)c1c(C)cc2cccc(O)c2c1O[C@@H]1O[C@H](CO)[C@@H](O)[C@H](O)[C@H]1O
CATEGORY_LABEL: inactive
//
COMPOUND: C[C@@]12C(=O)N(c3ccc(C(=O)Nc4cccc5cccnc45)cc3)C(=O)[C@@H]1[C@@H]1C=C[C@H]2C1
CATEGORY_LABEL: inactive
//
COMPOUND: COC1CCN(C(=O)c2cc(Cc3n[nH]c(=O)c4ccccc34)ccc2F)CC1
CATEGORY_LABEL: inactive
//
COMPOUND: COc1ccc(S(=O)(=O)N2CCC[C@H]2C(=O)Nc2cc(C)cc(C)c2)cc1
CATEGORY_LABEL: inactive
//
COMPOUND: C=C1C(=O)O[C@@H]2[C@H]1CC(=O)[C@H](C)[C@@](O)(C(=O)/C=C/C)[C@H]2OC(=O)C(C)CC (stereo partly drawn)
CATEGORY_LABEL: active
//
COMPOUND: C/C=C/C=C/C=C/C(=O)O[C@@H]1C=C(CO)C(O)(C(=O)OC)[C@@]2(C)CCCC(C)(C)C12 (stereo partly drawn)
CATEGORY_LABEL: inactive
//
COMPOUND: COc1ccc(-c2c(C)nn3c(NCCN4CCOCC4)cc(C)nc23)cc1OC
CATEGORY_LABEL: inactive
//
COMPOUND: C1=Cc2ccccc2C(=C2CCN(CCCCc3nn[nH]n3)CC2)c2ccccc21
CATEGORY_LABEL: inactive
//
COMPOUND: N#Cc1cc(-c2ccnc(Nc3ccc(N4CCOCC4)cc3)n2)ccc1OC1CCOCC1
CATEGORY_LABEL: inactive
//
COMPOUND: COc1ccccc1S(=O)(=O)Nc1ccc2c(c1)CN(C)C(=O)N2
CATEGORY_LABEL: inactive
//
COMPOUND: CCCn1cc2c(nc(NC(=O)Nc3ccc(OC)cc3)n3nc(-c4ccco4)nc23)n1
CATEGORY_LABEL: inactive
